test system: P. falciparum stage V gametocytes; set-up: BacTiter-Glo ATP luminescence viability of purified stage V gametocytes in 384-well plates, per cent inhibition versus DMSO; conditions: 48 h, 5 µM; inhibitor
In all, about 13,000 compounds went through this assay and about 3,200 (25%) showed an effect of 50% or more. This is one part of the list.
Would you kindly list % Inhibition for each of these compounds?
Quick note: give the figure in %, leave out the unit.

Ask | Could you please provide reported % Inhibition for COc1cccc(NC(=O)Nc2c(-c3cccc(C(F)(F)F)c3)c(C(F)(F)F)nn2C)c1 ? Thanks!
Reply | 19.24

Ask | Could you please provide reported % Inhibition for O=c1cc(-c2cccc(C(F)(F)F)c2)nc(Nc2ccc(Cl)c(Cl)c2)[nH]1 ? Thanks!
Reply | 43.99

Ask | Could you please provide reported % Inhibition for COc1ccccc1Cn1ccnc1SCC(=O)Nc1cccc(C(F)(F)F)c1 ? Thanks!
Reply | -18.32

Ask | Could you please provide reported % Inhibition for CCN(CC)CCN(Cc1ccc(-c2ccc(C(F)(F)F)cc2)cc1)C(=O)Cn1c(CCc2c(F)cccc2F)nc(=O)c2ccccc21 ? Thanks!
Reply | 87.94
